- Test system: Exo1 (exonuclease)
- protocol.summary: ITC
- condition.parameters: ITC: 67 mM glycine-KOH, 6.7 mM MgCl2, 1 mM TCEP, 37 C (Methods: 100 uM aptamer into 10 uM Exo1; Results text: 10 uM into 1 uM). Cells: Dulbecco's PBS, 5 mM …
parameter.measured: pKd
Answers are plain numbers, as −log10 of the molar value.

sequence ATCTAACTGCTGCGCCGCCGGGAAAATACTGTACGGTTAGA [Sgc8 (S01)] , pKd observed: 9.00

====

- System: Exo1 (exonuclease)
- protocol.summary: ITC
- condition.parameters: 5'-terminal GalNAc-modified base (N1, printed X); position 12 is also printed X, but the text describes only 5' modification, so likely a misprint for T; ITC: 67 mM glycine-KOH, 6.7 mM MgCl2, 1 mM TCEP, 37 C (Methods: 100 uM aptamer into 10 uM Exo1; Results text: 10 uM into 1 uM). Cells: Dulbecco's PBS, 5 mM …
parameter.measured: pKd
One number for each entry, as −log10 of the molar value.

sequence NATCTAACTGCNGCGCCGCCGGGAAAATACTGTACGGTTAGAT [GS01 (5' GalN-Sgc8)] , pKd observed: 3.18
